Task for the reader: assign each of the following compounds its reported IC50.
# System tested: UniProt:Q9UM73
# Assay comment: ALK kinase inhibition, TRF/ELISA
# Type: biochemical
# Condition context: read-out: ALK Potency

As a guide, the following entries are already answered.
NC(=O)[C@@H]1[C@H](Nc2c(Cl)cnc3[nH]c(-c4cccc(C(=O)N5CCNC(C(=O)O)C5)c4)nc23)[C@H]2C=C[C@@H]1C2 (stereo partly drawn) [Compound CCXXV] | 100 to 1000 nM
CN1CCN(c2nc(Cl)c(-c3nc4c(N[C@H]5[C@@H](C(=O)N(C)C)[C@@H]6C=C[C@H]5C6)c(Cl)cnc4[nH]3)s2)CC1 [Compound CCLXIV] | < 100 nM

# evaluate next
Request: Look up IC50: CC12CCC(Nc3c(Cl)cnc4[nH]c(-c5ccc(N6CCOCC6)cc5)nc34)(CC1O)C2(C)C (stereo not drawn) [Compound CCI]
Response: > 10000 nM

====

Provide the reported melting point of each item.

Completed entries (count: 2):
COc1cc(N(C)C)ccc1-c1nc2c(N[C@H]3[C@@H](C(N)=O)[C@@H]4C=C[C@H]3C4)c(Br)cnc2[nH]1 | 218 to 220 °C
COc1cc(C2CCN(C[C@@H](C)O)CC2)ccc1-c1nc2c(N[C@H]3[C@@H](C(N)=O)[C@@H]4C=C[C@H]3C4)c(Cl)cnc2[nH]1 | > 120 °C

// switching to the query molecule
Request: Entry NC(=O)[C@@H]1[C@H](Nc2ccnc3[nH]c(-c4ccc(N5CCOCC5)cc4)nc23)[C@H]2C=C[C@@H]1C2 : reported melting point = ?
Response: 240 to 244 °C

====

# System tested: baculovirus-expressed ALK (Homo sapiens)
# Sequence (Q9UM73 19-1620): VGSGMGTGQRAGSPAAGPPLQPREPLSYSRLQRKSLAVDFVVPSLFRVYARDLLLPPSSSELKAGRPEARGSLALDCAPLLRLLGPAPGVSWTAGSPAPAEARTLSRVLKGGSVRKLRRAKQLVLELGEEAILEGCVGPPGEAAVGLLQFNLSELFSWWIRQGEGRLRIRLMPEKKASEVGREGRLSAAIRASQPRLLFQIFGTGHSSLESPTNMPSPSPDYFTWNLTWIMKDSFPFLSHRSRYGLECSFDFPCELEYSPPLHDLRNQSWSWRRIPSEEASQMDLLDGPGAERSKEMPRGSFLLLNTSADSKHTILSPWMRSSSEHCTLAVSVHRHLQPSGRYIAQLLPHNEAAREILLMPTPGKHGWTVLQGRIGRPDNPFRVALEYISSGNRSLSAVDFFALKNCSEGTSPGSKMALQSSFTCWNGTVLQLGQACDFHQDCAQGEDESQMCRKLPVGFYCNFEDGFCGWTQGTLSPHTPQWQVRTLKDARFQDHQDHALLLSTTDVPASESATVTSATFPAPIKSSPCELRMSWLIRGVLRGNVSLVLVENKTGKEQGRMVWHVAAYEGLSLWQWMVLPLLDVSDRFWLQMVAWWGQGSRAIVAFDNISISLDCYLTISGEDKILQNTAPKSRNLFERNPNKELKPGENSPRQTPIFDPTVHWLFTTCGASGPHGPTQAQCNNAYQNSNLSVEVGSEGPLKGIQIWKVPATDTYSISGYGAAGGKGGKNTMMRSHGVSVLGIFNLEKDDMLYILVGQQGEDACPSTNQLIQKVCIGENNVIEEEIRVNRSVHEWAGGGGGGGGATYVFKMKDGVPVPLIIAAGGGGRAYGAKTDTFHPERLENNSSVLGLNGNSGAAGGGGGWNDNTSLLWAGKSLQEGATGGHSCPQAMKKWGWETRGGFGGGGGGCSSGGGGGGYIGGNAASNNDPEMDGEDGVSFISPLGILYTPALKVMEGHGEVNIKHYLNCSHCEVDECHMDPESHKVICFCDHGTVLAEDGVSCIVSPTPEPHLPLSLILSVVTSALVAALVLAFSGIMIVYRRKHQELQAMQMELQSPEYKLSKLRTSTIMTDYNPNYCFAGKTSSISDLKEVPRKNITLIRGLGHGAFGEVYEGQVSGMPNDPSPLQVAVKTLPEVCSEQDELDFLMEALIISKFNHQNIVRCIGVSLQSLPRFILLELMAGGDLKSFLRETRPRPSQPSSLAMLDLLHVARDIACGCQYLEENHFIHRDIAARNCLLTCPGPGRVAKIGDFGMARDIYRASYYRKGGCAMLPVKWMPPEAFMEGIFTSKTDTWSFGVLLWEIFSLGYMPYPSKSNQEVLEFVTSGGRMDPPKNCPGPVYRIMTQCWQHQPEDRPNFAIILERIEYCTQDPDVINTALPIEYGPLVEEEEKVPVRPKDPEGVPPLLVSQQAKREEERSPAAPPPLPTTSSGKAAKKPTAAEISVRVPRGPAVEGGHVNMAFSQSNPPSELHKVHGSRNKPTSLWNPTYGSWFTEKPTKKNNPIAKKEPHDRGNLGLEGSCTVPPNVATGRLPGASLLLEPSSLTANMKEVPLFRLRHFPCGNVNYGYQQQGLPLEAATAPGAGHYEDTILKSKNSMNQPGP
# Assay comment: ALK kinase inhibition, TRF/ELISA
# Assay type: biochemical
# Condition context: read-out: ALK Potency
pIC50: −log10 of the molar value. Counter-ions that a name gives are not always drawn.
Property name: pIC50

Take a look at these entries with their results.
NC(=O)[C@@H]1[C@H](Nc2c(Cl)cnc3[nH]c(-c4ccc(OCC(=O)O)cc4)nc23)[C@H]2C=C[C@@H]1C2 [Compound CCXLVI] | 6.00 to 7.00
COc1ncc(-c2nc3c(N[C@H]4[C@@H](C(N)=O)[C@@H]5C=C[C@H]4C5)c(Cl)cnc3[nH]2)s1 [Compound CCIX] | 6.00 to 7.00

Please state pIC50 for every compound in the list that follows.
1. COc1ccccc1Nc1nc2c(N[C@H]3[C@@H](C(N)=O)[C@@H]4C=C[C@H]3C4)c(Cl)cnc2[nH]1 [Compound LXVIII]
2. NC(=O)[C@@H]1[C@H](Nc2c(Cl)cnc3[nH]c(-c4cnc(N5CCOCC5)s4)nc23)[C@H]2C=C[C@@H]1C2 [Compound CCX]
3. COc1cc(CN(C)C)ccc1-c1nc2c(N[C@H]3[C@@H](C(N)=O)[C@@H]4C=C[C@H]3C4)c(Cl)cnc2[nH]1 [Compound XLVI, trifluoroacetic acid salt]
4. CC(C)(C)OC(=O)N1CCCC(c2nc3c(N[C@H]4[C@@H](C(N)=O)[C@@H]5C=C[C@H]4C5)c(Cl)cnc3[nH]2)C1 (stereo partly drawn) [Compound XI]

Response:
1: 6.00 to 7.00; 2: > 7.00; 3: > 7.00; 4: < 5.00

====

Please provide measured IC50 for the entries that follow.
# System tested: baculovirus-expressed JAK2 kinase (Homo sapiens, UniProt O60674)
# Sequence (O60674 whole entry): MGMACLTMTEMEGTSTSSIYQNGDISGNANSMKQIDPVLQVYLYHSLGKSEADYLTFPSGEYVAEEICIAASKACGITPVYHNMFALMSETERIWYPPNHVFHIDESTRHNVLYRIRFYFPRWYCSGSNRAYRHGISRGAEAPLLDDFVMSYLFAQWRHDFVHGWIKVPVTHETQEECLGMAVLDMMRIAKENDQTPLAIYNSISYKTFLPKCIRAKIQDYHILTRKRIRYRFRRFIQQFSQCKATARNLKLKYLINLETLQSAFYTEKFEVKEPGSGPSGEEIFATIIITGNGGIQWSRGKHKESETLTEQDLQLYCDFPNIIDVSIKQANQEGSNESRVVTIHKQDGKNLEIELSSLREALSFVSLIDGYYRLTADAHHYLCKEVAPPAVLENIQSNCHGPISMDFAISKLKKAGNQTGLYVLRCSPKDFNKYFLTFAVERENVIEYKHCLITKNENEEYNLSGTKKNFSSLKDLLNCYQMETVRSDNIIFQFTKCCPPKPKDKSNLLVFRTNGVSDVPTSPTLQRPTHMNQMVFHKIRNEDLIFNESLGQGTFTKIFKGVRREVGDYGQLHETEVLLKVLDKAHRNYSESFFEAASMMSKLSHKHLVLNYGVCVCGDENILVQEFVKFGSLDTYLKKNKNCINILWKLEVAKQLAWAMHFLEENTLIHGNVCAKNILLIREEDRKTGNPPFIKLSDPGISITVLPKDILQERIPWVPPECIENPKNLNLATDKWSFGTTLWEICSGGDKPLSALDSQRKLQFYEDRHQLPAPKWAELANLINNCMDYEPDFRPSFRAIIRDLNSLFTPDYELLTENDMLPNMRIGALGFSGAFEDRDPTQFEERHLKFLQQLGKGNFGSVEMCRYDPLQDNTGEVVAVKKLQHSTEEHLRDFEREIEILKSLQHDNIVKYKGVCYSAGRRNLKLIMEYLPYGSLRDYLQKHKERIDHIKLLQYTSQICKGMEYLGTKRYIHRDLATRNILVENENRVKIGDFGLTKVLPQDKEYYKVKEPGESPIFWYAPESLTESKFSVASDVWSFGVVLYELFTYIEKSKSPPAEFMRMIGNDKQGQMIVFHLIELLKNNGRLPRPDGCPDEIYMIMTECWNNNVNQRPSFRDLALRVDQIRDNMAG
# Assay comment: biochemical
# Condition context: 0.2 μM ATP; read-out: JAK2 Potency
# Description: Compounds were tested for their ability to inhibit the kinase activity of baculovirus-expressed JAK2 kinase using the time-resolved fluorescence (TRF) detection system. […] Inhibition data were analyzed using ActivityBase (IDBS, Guilford, UK). IC50 values were calculated by plotting percent inhibition versus log10 of the concentration of compound and fitting to the nonlinear regression sigmoidal dose-response (variable slope) equation in XLFit (IDBS, Guilford, UK).

Would you please look over these solved cases?
NC(=O)[C@@H]1[C@H](Nc2c(Br)cnc3[nH]c(-c4ccccc4F)nc23)[C@H]2C=C[C@@H]1C2 [Compound CXXXI] | < 100 nM
NC(=O)[C@@H]1[C@H](Nc2c(Cl)cnc3[nH]c(-c4cccc(C(=O)NC(CO)C(=O)O)c4)nc23)[C@H]2C=C[C@@H]1C2 (stereo partly shown) [Compound CCXXIX] | < 100 nM
CN1CCN(c2ccc(-c3nc4c(N[C@H]5[C@@H](C(N)=O)[C@@H]6C=C[C@H]5C6)ccnc4[nH]3)cc2)CC1 [Compound LXXXVIII] | 1000 to 10000 nM
NC(=O)[C@@H]1[C@H](Nc2c(Cl)cnc3[nH]c(-c4ccc(N5CCOCC5)cc4)nc23)[C@H]2CC[C@@H]1O2 [Compound CCIV] | < 100 nM
NC(=O)[C@@H]1[C@H](Nc2c(Cl)cnc3[nH]c(-c4ccc(C(=O)NC(CO)C(=O)O)cc4)nc23)[C@H]2C=C[C@@H]1C2 (stereo partly shown) [Compound CCXXX] | < 100 nM
NC(=O)[C@@H]1[C@H](Nc2c(Cl)cnc3[nH]c(-c4cnc(N5CCOCC5)s4)nc23)[C@H]2C=C[C@@H]1C2 [Compound CCX] | < 100 nM
COc1cc(CN2CCN(C[C@H](C)O)CC2)ccc1-c1nc2c(N[C@H]3[C@@H](C(N)=O)[C@@H]4C=C[C@H]3C4)c(Cl)cnc2[nH]1 [Compound XLIII] | < 100 nM
CC(C)(C)OC(=O)N1CCC(c2nc3c(N[C@H]4[C@@H](C(N)=O)[C@@H]5C=C[C@H]4C5)c(Cl)cnc3[nH]2)CC1 [Compound CCXV] | 1000 to 10000 nM
NC(=O)[C@@H]1[C@H](Nc2c(Cl)cnc3[nH]c(-c4cccc(O)c4)nc23)[C@H]2C=C[C@@H]1C2 [Compound CCXXXIII] | < 100 nM
CC12CCC(Nc3c(Cl)cnc4[nH]c(-c5ccc(N6CCOCC6)cc5)nc34)(CC1=O)C2(C)C (stereo not shown) [Compound CXCVIII] | < 100 nM

State recorded IC50 for all listed molecules.
1. Cc1nc(C2CCN(CC(N)=O)CC2)sc1-c1nc2c(N[C@H]3[C@@H](C(N)=O)[C@@H]4C=C[C@H]3C4)c(Cl)cnc2[nH]1 [Compound LXV]
2. COC[C@H](O)CN1CCC(c2ccc(-c3nc4c(N[C@H]5[C@@H](C(N)=O)[C@@H]6C=C[C@H]5C6)c(Cl)cnc4[nH]3)c(OC)c2)CC1 [Compound LIV]
3. CN(C)CCOc1ccc(-c2nc3c(N[C@H]4[C@@H](C(N)=O)[C@@H]5C=C[C@H]4C5)c(Cl)cnc3[nH]2)cc1 [Compound CCXLIX]
4. CC(C)(C)OC(=O)N1CCCC(c2nc3c(N[C@H]4[C@@H](C(N)=O)[C@@H]5C=C[C@H]4C5)c(Cl)cnc3[nH]2)C1 (stereo partly shown) [Compound XI]
5. NC(=O)[C@@H]1[C@H](Nc2c(Cl)cnc3[nH]c(C4CCCNC4)nc23)[C@H]2C=C[C@@H]1C2 (single isomer, unassigned) [XIV]
6. CN(C)CCOc1ccc(-c2nc3c(N[C@H]4[C@@H](C(=O)N(C)C)[C@@H]5C=C[C@H]4C5)c(Cl)cnc3[nH]2)cc1 [Compound CLXXVII]

Response:
< 100 nM
< 100 nM
< 100 nM
> 10000 nM
> 10000 nM
< 100 nM

Answer for every listed entry: what is its IC50? The entries follow.
1. COc1ccc(CN2CCOCC2)cc1-c1nc2c(N[C@@H]3CCCC[C@H]3NS(C)(=O)=O)c(Cl)cnc2[nH]1 [Compound LXXIV]
2. COc1cc(C2CCN(C[C@H](C)O)CC2)ccc1-c1nc2c(N[C@H]3[C@@H](C(N)=O)[C@@H]4C=C[C@H]3C4)c(Cl)cnc2[nH]1 [Compound XLV]
3. COc1cc(N2CCN(C)CC2)ccc1-c1nc2c(N[C@H]3[C@@H](C(=O)N(C)C)[C@@H]4C=C[C@H]3C4)c(Cl)cnc2[nH]1 [Compound CXCVII]

Response:
> 10000 nM
< 100 nM
100 to 1000 nM

Here are 6 molecules. What values of IC50 were reported for them?
1. CN(C)CCNC(=O)c1ccc(-c2nc3c(N[C@H]4[C@@H](C(N)=O)[C@@H]5C=C[C@H]4C5)c(Cl)cnc3[nH]2)cc1 [Compound CCXXXII]
2. CC12CCC(Nc3c(Cl)cnc4[nH]c(-c5ccc(N6CCOCC6)cc5)nc34)(CC1O)C2(C)C (stereo not shown) [Compound CCI]
3. NC(=O)[C@@H]1[C@H](Nc2c(Br)cnc3[nH]c(-c4ccnc(N5CCOCC5)c4)nc23)[C@H]2C=C[C@@H]1C2 [Compound CXXXVI]
4. COc1cc(N2CCC(N3CCN(C)CC3)CC2)ccc1-c1nc2c(N[C@@H]3CCCC[C@H]3NS(C)(=O)=O)c(Cl)cnc2[nH]1 [CCLIII]
5. CN1CCN(c2ccc(-c3nc4c(N[C@@H]5[C@H]6CC[C@H](C6)[C@@H]5C(N)=O)c(Br)cnc4[nH]3)cc2)CC1 [Compound CXIII]
6. CC(O)CN1CCN(C(=O)c2ccc(-c3nc4c(N[C@H]5[C@@H](C(N)=O)[C@@H]6C=C[C@H]5C6)c(Cl)cnc4[nH]3)cc2)CC1 (stereo partly shown) [Compound CCXXIV]

Response:
1: < 100 nM; 2: < 100 nM; 3: < 100 nM; 4: 1000 to 10000 nM; 5: < 100 nM; 6: < 100 nM
